System Name: Beta-lactamase (Escherichia coli K-12, UniProt P00811)
Sequence (P00811 whole entry): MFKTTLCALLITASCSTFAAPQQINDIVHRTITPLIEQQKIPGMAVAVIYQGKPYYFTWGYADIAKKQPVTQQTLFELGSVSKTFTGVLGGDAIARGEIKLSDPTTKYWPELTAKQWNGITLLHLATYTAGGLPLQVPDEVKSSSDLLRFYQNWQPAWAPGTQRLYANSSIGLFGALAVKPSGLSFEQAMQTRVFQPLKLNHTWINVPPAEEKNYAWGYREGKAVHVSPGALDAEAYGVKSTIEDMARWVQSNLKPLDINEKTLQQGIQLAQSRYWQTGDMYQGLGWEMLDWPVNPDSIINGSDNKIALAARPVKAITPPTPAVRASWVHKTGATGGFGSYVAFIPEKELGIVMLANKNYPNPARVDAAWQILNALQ
Method Description: Compound was tested for inhibition of Escherichia coli AmpC, class C of Beta-lactamase
pIC50: −log10 of the molar value.
Readout Label: pIC50

molecular_string=CCOC(=O)/C=C\[C@@]1(C)[C@H](C(=O)O)N2C(=O)C[C@H]2S1(=O)=O readout_label=pIC50 observed=4.21
molecular_string=C[C@]1(/C=C/c2cncs2)[C@H](C(=O)O)N2C(=O)C[C@H]2S1(=O)=O readout_label=pIC50 observed=4.35
molecular_string=C[C@]1(/C=C\c2ccccn2)[C@H](C(=O)[O-])N2C(=O)C[C@H]2S1(=O)=O.[Na+] readout_label=pIC50 observed=4.34

Where do these numbers come from? They come from ChEMBL document CHEMBL1129642.
